- targetOfAssay: Tubulin (Homo sapiens) (UniProt P68371+Q9H4B7+P0DPH7+P68366+Q13509+Q71U36+P04350+Q3ZCM7+P07437+P68363+Q9BQE3+Q6PEY2+Q13885+Q9BVA1+Q9BUF5)
- experimentalDetails: Inhibition of [3H]colchicine binding to tubulin at 1 uM
- Assay type: protein-complex assay
Please respond with reported inhibition for every item in the list.
Kindly answer with a numeric value in %, unit omitted.

Entry COc1cc(C(=O)c2cc(-c3ccccc3)sc2N)cc(OC)c1OC , inhibition reported as 77

Lab book: inhibition of COc1cc(C(=O)c2sc(-c3cccc([N+](=O)[O-])c3)cc2N)cc(OC)c1OC noted as 74

Value of measured inhibition for the entry COc1cc(C(=O)c2sc(-c3ccccc3)cc2N)cc(OC)c1OC : 81

So, COc1ccc(-c2cc(N)c(C(=O)c3cc(OC)c(OC)c(OC)c3)s2)cc1OC ? Its inhibition was 53

Entry COc1cccc(-c2cc(N)c(C(=O)c3cc(OC)c(OC)c(OC)c3)s2)c1 — recorded inhibition = 81

Kindly note the recorded inhibition for COc1cc(C(=O)c2sc(-c3ccccc3Cl)cc2N)cc(OC)c1OC , which is 76

---

- targetOfAssay: Tubulin (Homo sapiens) (UniProt P68371+Q9H4B7+P0DPH7+P68366+Q13509+Q71U36+P04350+Q3ZCM7+P07437+P68363+Q9BQE3+Q6PEY2+Q13885+Q9BVA1+Q9BUF5)
- experimentalDetails: Inhibition of [3H]colchicine binding to tubulin at 1 uM
- Type: protein-complex assay
quantity: inhibition
Please state the value followed by its unit.

// inhibition value for COc1ccc(-c2cc(N)c(C(=O)c3cc(OC)c(OC)c(OC)c3)s2)cc1 : 60%

Lookup result for COc1cc(C(=O)c2cc(-c3ccc(C)cc3)sc2N)cc(OC)c1OC ; measured inhibition: 90%

compound COc1cc(C(=O)c2sc(-c3cccs3)cc2N)cc(OC)c1OC , inhibition observed: 80%

Item: COc1cc(C(=O)c2sc(-c3ccc(F)cc3)cc2N)cc(OC)c1OC | inhibition: 70%

Short answer for COc1cc(C(=O)c2sc(-c3ccc(C)cc3)cc2N)cc(OC)c1OC : inhibition was 80%

What the record says about COc1cc(C(=O)c2sc(-c3ccsc3)cc2N)cc(OC)c1OC : inhibition is 81%

---

- System: L1210
- experimentalDetails: Antiproliferative activity against mouse L1210 cells
- Assay type: functional, cell-based
quantity: pIC50
For clarity, pIC50 is expressed as the negative log10 of concentration in mol/L.

For COc1cc(C(=O)c2sc(-c3ccc(Cl)cc3)cc2N)cc(OC)c1OC the compound record lists pIC50 as 7.03

Entry under test: COc1cc(C(=O)c2sc(-c3ccc(I)cc3)cc2N)cc(OC)c1OC . Its pIC50 was 6.40

Input COc1cc(C(=O)c2sc(-c3ccsc3)cc2N)cc(OC)c1OC . Output pIC50: 7.92

// pIC50 value for COc1cc(C(=O)c2sc(-c3ccc(F)cc3)cc2N)cc(OC)c1OC : 7.70

Short answer for COc1ccc(/C=C\c2cc(OC)c(OC)c(OC)c2)cc1O : pIC50 was 8.55

// sample COc1cc(C(=O)c2sc(-c3cccs3)cc2N)cc(OC)c1OC , its pIC50 was 8.01

Record summary for COc1cc(C(=O)c2sc(-c3ccccc3Cl)cc2N)cc(OC)c1OC : reported pIC50 = 7.70

Field pIC50 (entry COc1ccc(-c2cc(N)c(C(=O)c3cc(OC)c(OC)c(OC)c3)s2)cc1 ) reads 7.35

Query COc1cccc(-c2cc(N)c(C(=O)c3cc(OC)c(OC)c(OC)c3)s2)c1 yields pIC50 of 7.66

pIC50 reported for this compound COc1cc(C(=O)c2sc(-c3ccc(C(F)(F)F)cc3)cc2N)cc(OC)c1OC : 6.43

pIC50 measured on COc1cc(C(=O)c2sc(-c3cc(OC)c(OC)c(OC)c3)cc2N)cc(OC)c1OC = 5.64

Reported pIC50 of CCOc1ccc(-c2cc(N)c(C(=O)c3cc(OC)c(OC)c(OC)c3)s2)cc1 : 6.23

Recorded result, COc1cc(C(=O)c2sc(-c3ccc(Cl)c(Cl)c3)cc2N)cc(OC)c1OC , pIC50: 6.59

For reference, reported pIC50 for COc1cc(C(=O)c2sc(-c3cccc([N+](=O)[O-])c3)cc2N)cc(OC)c1OC stands at 7.96

pIC50 measured on COc1cc(C(=O)c2sc(-c3ccc(C)cc3)cc2N)cc(OC)c1OC = 7.74

Kindly note the recorded pIC50 for COc1ccc(-c2cc(N)c(C(=O)c3cc(OC)c(OC)c(OC)c3)s2)cc1OC , which is 7.40

Per the records, this compound ( COc1cc(C(=O)c2sc(-c3ccc(Br)cc3)cc2N)cc(OC)c1OC ) has pIC50 equal to 7.00

// pIC50 value for COc1cc(C(=O)c2sc(-c3ccncc3)cc2N)cc(OC)c1OC : 6.74

Note to self: pIC50 recorded for COc1cc(C(=O)c2sc(-c3ccccc3)cc2N)cc(OC)c1OC was 7.96

Sample COc1cc(C(=O)c2sc(-c3ccc([N+](=O)[O-])cc3)cc2N)cc(OC)c1OC ; pIC50 observed: 7.00

Origin of measurements: ChEMBL document CHEMBL1137402
